Attribute: mass density
Details: 403.15 K; 101.33 kPa; Liquid; Vibrating tube method
All answers are understood in kg/m3, so give the number only.

In [3]: df
Out[3]:
                            molecule  units  observed_result
0    CCCCCC(=O)OC [methyl hexanoate]  kg/m3           774.67
1    CCCCCC(=O)OCC [ethyl hexanoate]  kg/m3           764.77
2  CCCCCCC(=O)OC [methyl heptanoate]  kg/m3           776.63

According to the records, this molecule CCCCCCCCCCCCCC(=O)OCC [ethyl tetradecanoate] displays mass density of 777.75

According to the records, this molecule CCCCCCCCCC(=O)OCC [ethyl decanoate] displays mass density of 773.63

According to the records, this molecule CCCCCCCCCCCCCC(=O)OC [methyl tetradecanoate] displays mass density of 783.52

According to the records, this molecule CCCCCCCCCCCC [dodecane] displays mass density of 667.04

According to the records, this molecule CCCCCCCC(=O)OC [methyl octanoate] displays mass density of 778.1

According to the records, this molecule CCCCCCCCCCCC(=O)OC [methyl dodecanoate] displays mass density of 782.4

According to the records, this molecule CCCCCCCC(=O)OCC [ethyl octanoate] displays mass density of 770.31

According to the records, this molecule CCCCCCCCCCCC(=O)OCC [ethyl dodecanoate] displays mass density of 775.85

According to the records, this molecule CCCCCCC(=O)OCC [ethyl heptanoate] displays mass density of 768.3

According to the records, this molecule CCCCCCCCCC(=O)OC [methyl decanoate] displays mass density of 780.82
